Header: log10(IC50) / Aminopeptidase N (Sus scrofa, UniProt P15145) / multiple publications
Target: Aminopeptidase N (Sus scrofa, UniProt P15145)
Sequence (P15145 whole entry): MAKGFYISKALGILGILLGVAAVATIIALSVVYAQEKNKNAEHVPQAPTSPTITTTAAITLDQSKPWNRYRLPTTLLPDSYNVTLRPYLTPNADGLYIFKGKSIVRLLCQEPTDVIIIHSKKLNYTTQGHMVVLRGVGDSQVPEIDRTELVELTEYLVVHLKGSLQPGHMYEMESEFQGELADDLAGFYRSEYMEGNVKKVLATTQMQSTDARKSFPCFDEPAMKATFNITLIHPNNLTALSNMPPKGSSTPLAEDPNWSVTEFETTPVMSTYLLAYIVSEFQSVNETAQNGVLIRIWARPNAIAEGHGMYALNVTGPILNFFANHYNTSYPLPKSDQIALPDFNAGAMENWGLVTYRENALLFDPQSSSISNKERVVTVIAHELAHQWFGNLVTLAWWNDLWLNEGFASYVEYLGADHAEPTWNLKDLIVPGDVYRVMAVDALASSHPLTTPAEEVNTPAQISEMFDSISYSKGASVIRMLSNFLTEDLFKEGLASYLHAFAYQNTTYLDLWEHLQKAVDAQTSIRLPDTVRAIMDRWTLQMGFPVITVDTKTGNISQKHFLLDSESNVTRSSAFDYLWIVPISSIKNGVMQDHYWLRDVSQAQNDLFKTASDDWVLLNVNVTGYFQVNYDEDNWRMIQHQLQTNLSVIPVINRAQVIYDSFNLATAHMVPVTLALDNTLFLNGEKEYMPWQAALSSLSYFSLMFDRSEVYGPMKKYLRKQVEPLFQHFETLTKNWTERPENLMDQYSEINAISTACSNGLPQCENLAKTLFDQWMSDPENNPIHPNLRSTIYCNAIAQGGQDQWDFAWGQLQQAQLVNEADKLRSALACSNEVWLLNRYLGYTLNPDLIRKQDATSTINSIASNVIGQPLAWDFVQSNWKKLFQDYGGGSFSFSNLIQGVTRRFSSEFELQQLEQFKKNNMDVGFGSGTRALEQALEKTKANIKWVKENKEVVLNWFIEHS
value type: log10(IC50) (log10 of the value in µM)

INSERT INTO results (smiles_code, endpoint_result) VALUES
  ('CC[C@H](C)[C@H](NC(=O)N[C@@H](Cc1ccccc1)C(=O)NC[C@H](N)Cc1ccccc1)C(=O)O', 2.20),
  ('N[C@@H](CNC(=O)[C@H](CS)NC(=O)NCC(=O)O)Cc1ccccc1', 2.24),
  ('O=C(/C=C/c1ccccc1)N[C@H](CC(=O)Nc1ccccc1)C(=O)NO', 2.06),
  ('N[C@H](Cc1ccccc1)C(=O)N[C@H](Cc1ccccc1)C(=O)NC[C@H](N)[C@@H](O)c1ccc([N+](=O)[O-])cc1', 2.13),
  ('COc1cccc(Cn2cc(CNC(=O)N[C@@H](CC(C)C)C(=O)NO)nn2)c1', -0.04),
  ('N[C@@H](Cc1ccccc1)C(=O)N[C@H]1CCC(=O)N(CC(=O)Nc2ccc(Br)cc2)C1=O', 1.87),
  ('Cl.N[C@@H](Cc1ccccc1)C(=O)NCC(=O)N[C@H]1C[C@@H](C(=O)NO)N(S(=O)(=O)c2ccccc2)C1', 1.98),
  ('CC(C)C[C@H](N)C(=O)NC[C@H](N)[C@@H](O)c1ccc([N+](=O)[O-])cc1', 1.91),
  ('COc1cccc(OC)c1Cn1cc(CNC(=O)N[C@@H](CC(C)C)C(=O)NO)nn1', -0.33);
